Test System: Tumour suppressor p53/oncoprotein Mdm2 (Homo sapiens)
Protocol Description: Inhibition of 6His-tagged MDM2 (1 to 118) interaction to FITC-tagged p53 (17 to 26) (unknown origin) after 30 mins by fluorescence polarization assay
Quantity Kind: pIC50
# pIC50 is unitless: minus log10 of the molar concentration; print number only

Worked set:
{"Smiles Representation": "CCOc1ccc(C(=O)O)cc1-c1cc(-c2ccccc2OCC)n(Cc2ccccc2)n1", "Recorded Result": 3.95}
{"Smiles Representation": "COc1ccc(CCC(=O)O)cc1-c1cc(-c2ccc(F)cc2)n(Cc2ccccc2)n1", "Recorded Result": 4.77}
{"Smiles Representation": "COc1ccc(CCC(=O)O)cc1-c1cc(-c2cccc(OC)c2OC)n(CCc2ccccc2)n1", "Recorded Result": 3.36}
{"Smiles Representation": "COc1cccc(-c2cc(-c3cc(CC(=O)O)ccc3OCC(C)C)nn2Cc2ccccc2)c1OC", "Recorded Result": 3.92}
{"Smiles Representation": "CCCOc1ccc(C(=O)O)cc1-c1cc(-c2ccccc2OCC)n(Cc2ccccc2)n1", "Recorded Result": 4.16}

For reference, reported pIC50 for CCCOc1ccc(C(=O)O)cc1-c1cc(-c2cccc(OC)c2OC)n(CCc2ccccc2)n1 stands at 5.18

For reference, reported pIC50 for COc1ccc(CC(=O)O)cc1-c1cc(-c2cccc(OC)c2OC)n(Cc2ccccc2)n1 stands at 3.01

For reference, reported pIC50 for COc1cccc(-c2cc(-c3cc(CCC(=O)O)ccc3OCc3cccc(Cl)c3)nn2Cc2ccccc2)c1OC stands at 4.50

For reference, reported pIC50 for O=C(O)CCc1ccc(OCc2cccc(Cl)c2)c(-c2cc(-c3ccc(F)cc3)n(Cc3ccccc3)n2)c1 stands at 4.29

For reference, reported pIC50 for CCCCOc1ccc(CC(=O)O)cc1-c1cc(-c2cccc(OC)c2OC)n(CCc2ccccc2)n1 stands at 3.94

---

Protocol Description: Kinetic solubility of the compound in PBS buffer
Format: physicochemical
For each record, check the reported Kinetic_solubility: if it is below 0.06 Ug/ml write Fulfilled, else write Not fulfilled.

Given the entry COc1cccc(-c2cc(-c3cc(CC(=O)O)ccc3OCC(C)C)nn2Cc2ccccc2)c1OC , would its reported Kinetic_solubility be below 0.06 Ug/ml?
Not fulfilled

Given the entry CCCOc1ccc(C(=O)O)cc1-c1cc(-c2ccccc2OCC)n(Cc2ccccc2)n1 , would its reported Kinetic_solubility be below 0.06 Ug/ml?
Not fulfilled

Given the entry CCOc1ccccc1-c1cc(-c2cc(CC(=O)O)ccc2OCC(C)C)nn1CCc1ccccc1 , would its reported Kinetic_solubility be below 0.06 Ug/ml?
Fulfilled

Given the entry CCOc1ccc(C(=O)O)cc1-c1cc(-c2ccccc2OCC)n(Cc2ccccc2)n1 , would its reported Kinetic_solubility be below 0.06 Ug/ml?
Not fulfilled

Given the entry CCOc1ccc(CC(=O)O)cc1-c1cc(-c2cccc(OC)c2OC)n(Cc2ccccc2)n1 , would its reported Kinetic_solubility be below 0.06 Ug/ml?
Not fulfilled

Given the entry COc1cccc(-c2cc(-c3cc(CCC(=O)O)ccc3OCc3cccc(Cl)c3)nn2Cc2ccccc2)c1OC , would its reported Kinetic_solubility be below 0.06 Ug/ml?
Fulfilled

Given the entry CCOc1ccccc1-c1cc(-c2ccc(C(=O)O)cc2)nn1CCc1ccccc1 , would its reported Kinetic_solubility be below 0.06 Ug/ml?
Not fulfilled

Given the entry COc1ccc(CCC(=O)O)cc1-c1cc(-c2ccc(Cl)cc2)n(Cc2ccccc2)n1 , would its reported Kinetic_solubility be below 0.06 Ug/ml?
Fulfilled

Given the entry COc1cccc(-c2cc(-c3cc(CC(=O)O)ccc3OCC(C)C)nn2CCc2ccccc2)c1OC , would its reported Kinetic_solubility be below 0.06 Ug/ml?
Fulfilled

Given the entry CCOc1ccc(C(=O)O)cc1-c1cc(-c2cccc(OC)c2OC)n(CCc2ccccc2)n1 , would its reported Kinetic_solubility be below 0.06 Ug/ml?
Not fulfilled

---

Kinetic_solubility overview
Protocol Description: Kinetic solubility of the compound in PBS buffer
Format: physicochemical
Provide the reading as a plain figure in Ug/ml.

{"Smiles Representation": "CCOc1ccc(CCC(=O)O)cc1-c1cc(-c2ccccc2OCC)n(CCc2ccccc2)n1", "Quantity Kind": "Kinetic_solubility", "Recorded Result": 0.102}
{"Smiles Representation": "CCCCOc1ccc(CC(=O)O)cc1-c1cc(-c2ccccc2OCC)n(CCc2ccccc2)n1", "Quantity Kind": "Kinetic_solubility", "Recorded Result": 0.096}
{"Smiles Representation": "CCOc1ccccc1-c1cc(-c2cc(C(=O)O)ccc2OCC(C)C)nn1CCc1ccccc1", "Quantity Kind": "Kinetic_solubility", "Recorded Result": 0.015}

Kindly consider the entry below.
For reference, reported Kinetic_solubility for COc1ccc(CCC(=O)O)cc1-c1cc(-c2cccc(OC)c2OC)n(Cc2ccccc2)n1 stands at 0.169

---

Test System: Tumour suppressor p53/oncoprotein Mdm2 (Homo sapiens, UniProt Q00987)
Sequence (P04637 whole entry): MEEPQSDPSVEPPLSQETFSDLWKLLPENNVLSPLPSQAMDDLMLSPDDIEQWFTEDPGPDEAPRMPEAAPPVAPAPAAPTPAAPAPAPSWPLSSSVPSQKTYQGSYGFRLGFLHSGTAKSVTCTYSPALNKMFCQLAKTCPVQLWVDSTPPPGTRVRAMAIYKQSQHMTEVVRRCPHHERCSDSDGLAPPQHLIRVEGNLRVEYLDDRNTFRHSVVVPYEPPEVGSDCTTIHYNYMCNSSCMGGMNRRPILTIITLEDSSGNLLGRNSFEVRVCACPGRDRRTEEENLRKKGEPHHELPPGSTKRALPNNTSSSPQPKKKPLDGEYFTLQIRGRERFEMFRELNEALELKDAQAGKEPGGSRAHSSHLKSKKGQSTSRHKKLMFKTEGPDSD
Sequence (Q00987 whole entry): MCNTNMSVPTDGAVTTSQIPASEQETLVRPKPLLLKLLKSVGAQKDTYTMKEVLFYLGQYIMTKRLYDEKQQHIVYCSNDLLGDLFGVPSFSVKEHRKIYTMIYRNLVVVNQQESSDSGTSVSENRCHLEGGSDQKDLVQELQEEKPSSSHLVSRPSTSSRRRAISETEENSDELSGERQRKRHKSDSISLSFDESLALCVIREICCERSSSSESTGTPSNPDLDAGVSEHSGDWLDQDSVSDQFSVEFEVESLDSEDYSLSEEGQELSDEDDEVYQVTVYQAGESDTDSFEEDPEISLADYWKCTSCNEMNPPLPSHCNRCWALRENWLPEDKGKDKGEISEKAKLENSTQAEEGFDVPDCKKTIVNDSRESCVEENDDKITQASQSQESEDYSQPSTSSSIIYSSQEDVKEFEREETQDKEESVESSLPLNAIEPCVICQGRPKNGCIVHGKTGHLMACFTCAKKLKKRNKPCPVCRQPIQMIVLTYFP
Protocol Description: Inhibition of 6His-tagged MDM2 (1 to 118) interaction to FITC-tagged p53 (17 to 26) (unknown origin) after 30 mins by fluorescence polarization assay
Quantity Kind: IC50 (µM)
Provide the reading as a plain figure in µM.

Worked set:
{"Smiles Representation": "COc1ccc(CC(=O)O)cc1-c1cc(-c2ccc(F)cc2)n(Cc2ccccc2)n1", "Test System": "Tumour suppressor p53/oncoprotein Mdm2 (Homo sapiens, UniProt Q00987)", "Quantity Kind": "IC50", "Recorded Result": 595}
{"Smiles Representation": "COc1cccc(-c2cc(-c3cc(CCC(=O)O)ccc3OCc3cccc(Cl)c3)nn2CCc2ccccc2)c1OC", "Test System": "Tumour suppressor p53/oncoprotein Mdm2 (Homo sapiens, UniProt Q00987)", "Quantity Kind": "IC50", "Recorded Result": 34}
{"Smiles Representation": "CCOc1ccc(CCC(=O)O)cc1-c1cc(-c2ccc(F)cc2)n(Cc2ccccc2)n1", "Test System": "Tumour suppressor p53/oncoprotein Mdm2 (Homo sapiens, UniProt Q00987)", "Quantity Kind": "IC50", "Recorded Result": 101}
{"Smiles Representation": "CCOc1ccc(C(=O)O)cc1-c1cc(-c2ccccc2OCC)n(CCc2ccccc2)n1", "Test System": "Tumour suppressor p53/oncoprotein Mdm2 (Homo sapiens, UniProt Q00987)", "Quantity Kind": "IC50", "Recorded Result": 10.7}

# lookup: CCCCOc1ccc(CC(=O)O)cc1-c1cc(-c2ccccc2OCC)n(CCc2ccccc2)n1 on Tumour suppressor p53/oncoprotein Mdm2 (Homo sapiens, UniProt Q00987), IC50 = 54.1

---

Kinetic_solubility overview
Protocol Description: Kinetic solubility of the compound in PBS buffer
Type: physicochemical
Provide the reading as a plain figure in Ug/ml.

{"Smiles Representation": "CCOc1ccccc1-c1cc(-c2cc(C(=O)O)ccc2OC)nn1Cc1ccccc1", "Quantity Kind": "Kinetic_solubility", "Result Units": "Ug/ml", "Recorded Result": 0.039}
{"Smiles Representation": "CCOc1ccc(C(=O)O)cc1-c1cc(-c2ccccc2OCC)n(CCc2ccccc2)n1", "Quantity Kind": "Kinetic_solubility", "Result Units": "Ug/ml", "Recorded Result": 0.022}
{"Smiles Representation": "CCOc1ccc(C(=O)O)cc1-c1cc(-c2cccc(OC)c2OC)n(Cc2ccccc2)n1", "Quantity Kind": "Kinetic_solubility", "Result Units": "Ug/ml", "Recorded Result": 0.138}
{"Smiles Representation": "CCCOc1ccc(C(=O)O)cc1-c1cc(-c2cccc(OC)c2OC)n(CCc2ccccc2)n1", "Quantity Kind": "Kinetic_solubility", "Result Units": "Ug/ml", "Recorded Result": 0.117}
{"Smiles Representation": "CCCCOc1ccc(CC(=O)O)cc1-c1cc(-c2cccc(OC)c2OC)n(CCc2ccccc2)n1", "Quantity Kind": "Kinetic_solubility", "Result Units": "Ug/ml", "Recorded Result": 0.117}

For reference, reported Kinetic_solubility for CCOc1ccccc1-c1cc(-c2ccc(C(=O)O)cc2)nn1Cc1ccccc1 stands at 0.117

---

Test System: Tumour suppressor p53/oncoprotein Mdm2 (Homo sapiens, UniProt Q00987)
Protocol Description: Inhibition of 6His-tagged MDM2 (1 to 118) interaction to FITC-tagged p53 (17 to 26) (unknown origin) after 30 mins by fluorescence polarization assay
Quantity Kind: pIC50
# pIC50 is unitless: minus log10 of the molar concentration; print number only

Worked set:
{"Smiles Representation": "CCOc1ccc(C(=O)O)cc1-c1cc(-c2cccc(OC)c2OC)n(Cc2ccccc2)n1", "pIC50": 3.53}
{"Smiles Representation": "COc1ccc(CC(=O)O)cc1-c1cc(-c2cccc(OC)c2OC)n(CCc2ccccc2)n1", "pIC50": 3.14}
{"Smiles Representation": "COc1cccc(-c2cc(-c3cc(C(=O)O)ccc3OCC(C)C)nn2CCc2ccccc2)c1OC", "pIC50": 5.09}
{"Smiles Representation": "COc1cccc(-c2cc(-c3cc(CC(=O)O)ccc3OCC(C)C)nn2CCc2ccccc2)c1OC", "pIC50": 4.17}
{"Smiles Representation": "CCOc1ccc(CCC(=O)O)cc1-c1cc(-c2ccc(F)cc2)n(CCc2ccccc2)n1", "pIC50": 4.45}
{"Smiles Representation": "CCOc1ccc(CCC(=O)O)cc1-c1cc(-c2ccccc2OCC)n(CCc2ccccc2)n1", "pIC50": 3.98}
{"Smiles Representation": "CCOc1ccccc1-c1cc(-c2cc(CC(=O)O)ccc2OCC(C)C)nn1CCc1ccccc1", "pIC50": 4.31}
{"Smiles Representation": "COc1ccc(CCC(=O)O)cc1-c1cc(-c2ccc(Cl)cc2)n(Cc2ccccc2)n1", "pIC50": 4.06}
{"Smiles Representation": "O=C(O)c1ccc(-c2cc(-c3ccc(F)cc3)n(CCc3ccccc3)n2)cc1", "pIC50": 3.89}
{"Smiles Representation": "COc1ccc(C(=O)O)cc1-c1cc(-c2cccc(OC)c2OC)n(CCc2ccccc2)n1", "pIC50": 3.73}

# lookup: CCOc1ccccc1-c1cc(-c2cc(CC(=O)O)ccc2OCc2cccc(Cl)c2)nn1CCc1ccccc1 on Tumour suppressor p53/oncoprotein Mdm2 (Homo sapiens, UniProt Q00987), pIC50 = 3.60

# lookup: CCCCOc1ccc(C(=O)O)cc1-c1cc(-c2ccccc2OCC)n(CCc2ccccc2)n1 on Tumour suppressor p53/oncoprotein Mdm2 (Homo sapiens, UniProt Q00987), pIC50 = 4.78

# lookup: CCCOc1ccc(C(=O)O)cc1-c1cc(-c2cccc(OC)c2OC)n(Cc2ccccc2)n1 on Tumour suppressor p53/oncoprotein Mdm2 (Homo sapiens, UniProt Q00987), pIC50 = 4.10

# lookup: CCOc1ccccc1-c1cc(-c2ccc(C(=O)O)cc2)nn1CCc1ccccc1 on Tumour suppressor p53/oncoprotein Mdm2 (Homo sapiens, UniProt Q00987), pIC50 = 4.04

# lookup: CCOc1ccccc1-c1cc(-c2cc(CCC(=O)O)ccc2OC)nn1Cc1ccccc1 on Tumour suppressor p53/oncoprotein Mdm2 (Homo sapiens, UniProt Q00987), pIC50 = 3.41

# lookup: CCOc1ccccc1-c1cc(-c2cc(C(=O)O)ccc2OC)nn1Cc1ccccc1 on Tumour suppressor p53/oncoprotein Mdm2 (Homo sapiens, UniProt Q00987), pIC50 = 3.62

# lookup: CCOc1ccccc1-c1cc(-c2cc(CC(=O)O)ccc2OCc2cccc(Cl)c2)nn1Cc1ccccc1 on Tumour suppressor p53/oncoprotein Mdm2 (Homo sapiens, UniProt Q00987), pIC50 = 4.26

# lookup: CCOc1ccccc1-c1cc(-c2cc(CCC(=O)O)ccc2OC)nn1CCc1ccccc1 on Tumour suppressor p53/oncoprotein Mdm2 (Homo sapiens, UniProt Q00987), pIC50 = 3.59

# lookup: CCOc1ccc(CCC(=O)O)cc1-c1cc(-c2cccc(OC)c2OC)n(Cc2ccccc2)n1 on Tumour suppressor p53/oncoprotein Mdm2 (Homo sapiens, UniProt Q00987), pIC50 = 3.45
